conditions: 298.15 K; 101.33 kPa; Liquid; Vibrating tube method
# key: entry, value: mass density
API: value field is a number in kg/m3; no unit string.

Consider the worked cases shown below.
> print(dat)
                                 compound  experimentalreadout  readingunit  observedmeasurement
1      CCCCOCC(C)C [butyl isobutyl ether]         mass density        kg/m3               755.31
2  CCCOCCC(C)C [3-methyl-1-propoxybutane]         mass density        kg/m3               760.04
3              CCCCCCOCC [1-ethoxyhexane]         mass density        kg/m3               767.15
4                     CC#N [acetonitrile]         mass density        kg/m3               776.51
5            CCCCCCCOC [1-methoxyheptane]         mass density        kg/m3               775.52

Continue with the compound presented below.
Input line: Quick check: mass density of CCCCCOCCC [1-propoxypentane] ?
Output line: 764.78

====

details: 303.15 K; 101.33 kPa; Liquid; Vibrating tube method
# key: entry, value: mass density
API: value field is a number in kg/m3; no unit string.

Consider the worked cases shown below.
> print(dat)
                                 compound  experimentalreadout  readingunit  observedmeasurement
1            CCCCCCCOC [1-methoxyheptane]         mass density        kg/m3               771.31
2  CCCOCCC(C)C [3-methyl-1-propoxybutane]         mass density        kg/m3               755.62
3              CCCCCCOCC [1-ethoxyhexane]         mass density        kg/m3                762.8
4            CCCCCOCCC [1-propoxypentane]         mass density        kg/m3                760.4
5                     CC#N [acetonitrile]         mass density        kg/m3               771.06

Continue with the compound presented below.
Input line: Quick check: mass density of CCCCOCC(C)C [butyl isobutyl ether] ?
Output line: 750.87

====

conditions: 318.15 K; 101.33 kPa; Liquid; Vibrating tube method
experimentalReadout: mass density (kg/m3)
API: value field is a number in kg/m3; no unit string.

> print(dat)
   querysmiles  observedmeasurement
1         CC#N               754.56
2    CCCCCCCOC               758.57
3  CCCOCCC(C)C               742.31

Input line: Quick check: mass density of CCCCOCC(C)C ?
Output line: 737.58

Input line: Quick check: mass density of CCCCCOCCC ?
Output line: 747.19

Input line: Quick check: mass density of CCCCCCOCC ?
Output line: 749.66

Source listed as the NIST ThermoML archive (doi:10.1021/acs.jced.5b00838).
